Protocol text: protein stability index of a GFP-peptide fusion (GPS, HEK-293T) (PSI 1-6); higher = more stable;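 further: 24-mer peptide tiles fused after GFP, lentivirally expressed, FACS-sorted into six equal bins by GFP/DsRed ratio, decoded by Illumina sequencing, PSI is the read-weighted mean bin number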
Cond: treatment: DMSO; c terminus: a fixed tail appended
protein stability index: recorded values
Readout name: protein stability index

VNLQVATYSKFQPQSPDFLDITNP [UFD1]
2.53
RLVELAGQSLLKDEALAIAALELL [PRAME]
2.17
ESKGCFANTTPSGKSVSSSSSVET [SPATS1]
5.18
DEGRLLLEFDLLIFSFGQLPLALV [SOAT2]
3.16
VDNHFNLLTTSPVFPHYIEKPLGR [TRIM43]
3.05
LPVRPQTNALIGGPMPMSMPNVMT [CLINT1]
3.33
GWCIFVYNLSPEADESVLWQLFGP [ELAVL3]
2.8
